test system: HeLa Kyoto; experiment: solubility change mitosis vs G1/S (difference of NP-40 vs SDS log2 ratios) (log2 ratio difference); higher = more soluble in mitosis
Recorded solubility change mitosis (log2), one value per entry.
Simply state the number, no unit and no words.

What reported solubility change mitosis (log2) corresponds to MAATSLMSALAARLLQPAHSCSLRLRPFHLAAVRNEAVVISGRKLAQQIKQEVRQEVEEWVASGNKRPHLSVILVGENPASHSYVLNKTRAAAVVGINSETIMKPASISEEELLNLINKLNNDDNVDGLLVQLPLPEHIDERRICNAVSPDKDVDGFHVINVGRMCLDQYSMLPATPWGVWEIIKRTGIPTLGKNVVVAGRSKNVGMPIAMLLHTDGAHERPGGDATVTISHRYTPKEQLKKHTILADIVISAAGIPNLITADMIKEGAAVIDVGINRVHDPVTAKPKLVGDVDFEGVRQKAGYITPVPGGVGPMTVAMLMKNTIIAAKKVLRLEEREVLKSKELGVATN [MTHFD2] on HeLa Kyoto? -0.0584

Please provide the recorded solubility change mitosis (log2) for MFLVGLTGGIASGKSSVIQVFQQLGCAVIDVDVMARHVVQPGYPAHRRIVEVFGTEVLLENGDINRKVLGDLIFNQPDRRQLLNAITHPEIRKEMMKETFKYFLRGYRYVILDIPLLFETKKLLKYMKHTVVVYCDRDTQLARLMRRNSLNRKDAEARINAQLPLTDKARMARHVLDNSGEWSVTKRQVILLHTELERSLEYLPLRFGVLTGLAAIASLLYLLTHYLLPYA [DCAKD] , tested on HeLa Kyoto. -0.182

Could you now look at the following sequence, please?
Please provide the recorded solubility change mitosis (log2) for MSDLQAAEGPGSWSPTARPGSAGGVGDCQGVEGSQAAASENEDLENKDTSLLASATDPEPCSSPHRPQMVSPVSKDATEDLRKATGPLEAQALVKQDLLPADQAQVLNEMAKYQVPQRSGDIVMIQSEHTGAIDVLSADLESADLLGDHRKVSPPLMAPPCIWTFAKVKEFKSKLGKEKNSRLVVKRGEVVTIRVPTHPEGKRVCWEFATDDYDIGFGVYFDWTPVTSTDITVQVSDSSDDEDEEEEEEEEIEEPVPAGDVERGSRSSLRGRYGEVMPVYRRDSHRDVQAGSHDYPGEGIYLLKFDNSYSLLRNKTLYFHIYYTS [TMED8] , tested on HeLa Kyoto. -0.104

###

Let's look at some sequences and their measured melting temperature.
system: HeLa Kyoto; experiment: melting temperature (median over replicates), in situ; higher = more thermally stable; conditions: cell cycle stage: mitosis
Only the number, expressed in °C, is required.

Lab note: need melting temperature for MVFYFTSSSVNSSAYTIYMGKDKYENEDLIKHGWPEDIWFHVDKLSSAHVYLRLHKGENIEDIPKEVLMDCAHLVKANSIQGCKMNNVNVVYTPWSNLKKTADMDVGQIGFHRQKDVKIVTVEKKVNEILNRLEKTKVERFPDLAAEKECRDREERNEKKAQIQEMKKREKEEMKKKREMDELRSYSSLMKVENMSSNQDGNDSDEFM [CCDC25] on HeLa Kyoto, anyone have it? 50.6

What is its melting temperature for HeLa Kyoto? Entry: MANIAVQRIKREFKEVLKSEETSKNQIKVDLVDENFTELRGEIAGPPDTPYEGGRYQLEIKIPETYPFNPPKVRFITKIWHPNISSVTGAICLDILKDQWAAAMTLRTVLLSLQALLAAAEPDDPQDAVVANQYKQNPEMFKQTARLWAHVYAGAPVSSPEYTKKIENLCAMGFDRNAVIVALSSKSWDVETATELLLSN [UBE2K] 53.9

Notebook: pull reported melting temperature for HeLa Kyoto, entry MAAAEEGCSVGAEADRELEELLESALDDFDKAKPSPAPPSTTTAPDASGPQKRSPGDTAKDALFASQEKFFQELFDSELASQATAEFEKAMKELAEEEPHLVEQFQKLSEAAGRVGSDMTSQQEFTSCLKETLSGLAKNATDLQNSSMSEEELTKAMEGLGMDEGDGEGNILPIMQSIMQNLLSKDVLYPSLKEITEKYPEWLQSHRESLPPEQFEKYQEQHSVMCKICEQFEAETPTDSETTQKARFEMVLDLMQQLQDLGHPPKELAGEMPPGLNFDLDALNLSGPPGASGEQCLIM [G3V3G9] 51.3

Lookup: melting temperature / HeLa Kyoto / MTLESMMACCLSDEVKESKRINAEIEKQLRRDKRDARRELKLLLLGTGESGKSTFIKQMRIIHGAGYSEEDKRGFTKLVYQNIFTAMQAMIRAMETLKILYKYEQNKANALLIREVDVEKVTTFEHQYVSAIKTLWEDPGIQECYDRRREYQLSDSAKYYLTDVDRIATLGYLPTQQDVLRVRVPTTGIIEYPFDLENIIFRMVDVGGQRSERRKWIHCFENVTSIMFLVALSEYDQVLVESDNENRMEESKALFRTIITYPWFQNSSVILFLNKKDLLEDKILYSHLVDYFPEFDGPQRDAQAAREFILKMFVDLNPDSDKIIYSHFTCATDTENIRFVFAAVKDTILQLNLKEYNLV [GNA11] 50.6

---
Item: MAAAVAAAPGALGSLHAGGARLVAACSAWLCPGLRLPGSLAGRRAGPAIWAQGWVPAAGGPAPKRGYSSEMKTEDELRVRHLEEENRGIVVLGINRAYGKNSLSKNLIKMLSKAVDALKSDKKVRTIIIRSEVPGIFCAGADLKERAKMSSSEVGPFVSKIRAVINDIANLPVPTIAAIDGLALGGGLELALACDIRVAASSAKMGLVETKLAIIPGGGGTQRLPRAIGMSLAKELIFSARVLDGKEAKAVGLISHVLEQNQEGDAAYRKALDLAREFLPQGPVAMRVAKLAINQGMEVDLVTGLAIEEACYAQTIPTKDRLEGLLAFKEKRPPRYKGE [AUH] Test system: HeLa Kyoto Read-out: melting temperature Value: ? 51.6

###

test system: HeLa Kyoto; assay: melting temperature (median over replicates), in situ; higher = more thermally stable; settings: cell cycle stage: G1/S
Quantity kind: melting temperature
Give the value; after it, write the unit.

# annotated cases, reported melting temperature shown
Lab note: need melting temperature for MDLLQFLAFLFVLLLSGMGATGTLRTSLDPSLEIYKKMFEVKRREQLLALKNLAQLNDIHQQYKILDVMLKGLFKVLEDSRTVLTAADVLPDGPFPQDEKLKDAFSHVVENTAFFGDVVLRFPRIVHYYFDHNSNWNLLIRWGISFCNQTGVFNQGPHSPILSLMAQELGISEKDSNFQNPFKIDRTEFIPSTDPFQKALREEEKRRKKEEKRKEIRKGPRISRSQSEL [CCDC134] on HeLa Kyoto, anyone have it? 51.7 °C

Could you share what melting temperature was measured for MSSASGLRRGHPAGGEENMTETDAFYKREMFDPAEKYKMDHRRRGIALIFNHERFFWHLTLPERRGTCADRDNLTRRFSDLGFEVKCFNDLKAEELLLKIHEVSTVSHADADCFVCVFLSHGEGNHIYAYDAKIEIQTLTGLFKGDKCHSLVGKPKIFIIQACRGNQHDVPVIPLDVVDNQTEKLDTNITEVDAASVYTLPAGADFLMCYSVAEGYYSHRETVNGSWYIQDLCEMLGKYGSSLEFTELLTLVNRKVSQRRVDFCKDPSAIGKKQVPCFASMLTKKLHFFPKSN [CASP6] , tested on HeLa Kyoto? 54.4 °C

***
Tell me reported melting temperature for MASERLPNRPACLLVASGAAEGVSAQSFLHCFTMASTAFNLQVATPGGKAMEFVDVTESNARWVQDFRLKAYASPAKLESIDGARYHALLIPSCPGALTDLASSGSLARILQHFHSESKPICAVGHGVAALCCATNEDRSWVFDSYSLTGPSVCELVRAPGFARLPLVVEDFVKDSGACFSASEPDAVHVVLDRHLVTGQNASSTVPAVQNLLFLCGSRK [PDDC1] , tested with HeLa Kyoto. 55 °C

###

system: HeLa Kyoto; experiment: melting temperature (median over replicates), in situ; higher = more thermally stable; settings: cell cycle stage: G1/S
Quantity kind: melting temperature
Quick note: unit goes after the number.

Some sequences with known melting temperature results, for comparison:
What does the record list as melting temperature for MAAAELADTQLMLGVGLIEKDTNGEVLWVWCYPSTTATLRNLLLRKCCLTDENKLLHPFVFGQYRRTWFYITIIEVPDSSILKKVTHFSIVLTAKDFNPEKYAAFTRILCRMYLKHGSPVKMMESYIAVLTKGICQSEENGSFLSKDFDARKAYPAGSIKDIVSQFGMETVILHTALMLKKRIVVYHPKIEAVQEFTRTLPALVWHRQDWTILHSYVHLNADELEALQMCTGYVAGFVDLEVSNRPDLYDVFVNLAESEITIAPLAKEAMAMGKLHKEMGQLIVQSAEDPEKSESQVIQDIALKTREIFTNLAPFSEVSADGEKRVLNLEALKQKRFPPATENFLYHLAAAEQMLKI [FAM45BP] ? 50.6 °C

Given the entry MCGDCVEKEYPNRGNTCLENGSFLLNFTGCAVCSKRDFMLITNKSLKEEDGEEIVTYDHLCKNCHHVIARHEYTFSIMDEFQEYTMLCLLCGKAEDTISILPDDPRQMTLLF [CHURC1] , report its measured melting temperature. 51.5 °C

Would you kindly look at the next entry?
Dear colleague, I am looking for the recorded melting temperature of the following sequence: MADQRQRSLSTSGESLYHVLGLDKNATSDDIKKSYRKLALKYHPDKNPDNPEAADKFKEINNAHAILTDATKRNIYDKYGSLGLYVAEQFGEENVNTYFVLSSWWAKALFVFCGLLTCCYCCCCLCCCFNCCCGKCKPKAPEGEETEFYVSPEDLEAQLQSDEREATDTPIVIQPASATETTQLTADSHPSYHTDGFN [DNAJC5] 56 °C
